Origin of the recorded values: PubChem BioAssay (Tox21)

- system tested: Estrogen receptor (Homo sapiens)
- assay summary: qHTS assay to identify small molecule agonists of the estrogen receptor alpha (ER-alpha) signaling pathway in the presence of an antagonist (AID 1259383); note: nearly all actives have a fitted effect of over 15% in size; note: potency is the fitted concentration of half-maximal effect
- measurement conditions: VM7Luc4E2 cells, ERE-luciferase, +ICI-182,780, 22 h; series mostly up to 92.4 µM
Calls of active or inactive are those of the source. Calls come from the whole dose curve.
experimental readout: Potency

As a guide, the following entries are already answered.
CCOP(=S)(OCC)Oc1nc(Cl)n(C(C)C)n1 :: inactive
OCCBr :: inactive
CCCCN(CCCCO)N=O :: inactive
CCCCOP(=O)(O)OCCCC :: inactive
CSc1ccc(C(=O)C(C)(C)N2CCOCC2)cc1 :: inactive

Query: Report Potency for `Nc1cc2c3c(c1)C(c1ccccc1)=N[C@@H](NC(=O)c1cccnc1)C(=O)N3CC2` tested on Estrogen receptor (Homo sapiens).
Response: inactive

Query: Follow-up item: `C#C[C@]1(O)C=C[C@H]2[C@@H]3CCC4=CC(=O)CC[C@@H]4[C@H]3CC[C@@]21CC`
Response: 3.35 µM (active)

Query: Moving on to the next compound: `O=[N+]([O-])c1ccc(CBr)cc1`
Response: inactive

Query: Also, `CCOC(=O)C(c1c(O)c2ccccc2oc1=O)c1c(O)c2ccccc2oc1=O` please.
Response: inactive

Query: Let us now turn to `C=C(C)CN(CC)c1c([N+](=O)[O-])cc(C(F)(F)F)cc1[N+](=O)[O-]`
Response: inactive

Query: Same for `CCOC(=O)/C=C(C)/C=C/C[C@@H](C)CCCC(C)C`
Response: inactive

Query: Here is the next compound: `CNCC(=O)c1ccc(O)c(O)c1`
Response: inactive

Query: Next entry: `CCOP(=S)(OCC)SCSP(=S)(OCC)OCC`
Response: inactive

Query: Also `CCCSC(=O)Cl` , if possible.
Response: inactive

====

- system tested: Bile acid receptor (Homo sapiens) (UniProt Q96RI1)
- Sequence (Q96RI1 whole entry, looked up): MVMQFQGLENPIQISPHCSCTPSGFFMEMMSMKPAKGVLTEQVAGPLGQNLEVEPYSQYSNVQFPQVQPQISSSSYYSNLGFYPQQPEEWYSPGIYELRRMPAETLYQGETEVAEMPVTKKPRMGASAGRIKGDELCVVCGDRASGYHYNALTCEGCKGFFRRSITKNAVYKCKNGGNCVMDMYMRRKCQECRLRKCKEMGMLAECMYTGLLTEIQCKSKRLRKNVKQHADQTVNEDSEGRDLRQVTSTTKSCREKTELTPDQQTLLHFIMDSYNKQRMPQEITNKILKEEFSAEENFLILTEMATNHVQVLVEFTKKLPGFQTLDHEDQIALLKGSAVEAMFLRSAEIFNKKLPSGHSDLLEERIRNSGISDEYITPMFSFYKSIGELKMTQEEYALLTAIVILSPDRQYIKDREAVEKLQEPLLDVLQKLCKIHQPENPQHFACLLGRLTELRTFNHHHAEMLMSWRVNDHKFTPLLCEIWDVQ
- assay summary: qHTS assay to identify small molecule antagonists of the farnesoid-X-receptor (FXR) signaling pathway (AID 743217)
- measurement conditions: HEK293T FXR-UAS-bla, beta-lactamase ratio, CDCA-stimulated, 16 h; series mostly up to 62.6 µM
Inconclusive results are not listed. The source made the active and inactive calls. Calls follow the shape of the dose curve; as a rule, active = well fitted inhibition curve with a large enough effect in the signal ratio in the repeat runs (not every such curve was filed as active); inconclusive = weak or mixed curves, or effect the other way; inactive = no such curve, though single readings can be large or run the other way; the % refers to the signal ratio.
experimental readout: outcome

Worked examples, 10 molecules total:
CC(C=O)Cc1ccc2c(c1)OCO2 (centres undefined) :: inactive
CC(COc1ccc(Oc2ccccc2)cc1)Oc1ccccn1 (centres undefined) :: inactive
COP(=S)(OC)Oc1ccc(S(N)(=O)=O)cc1 :: inactive
CNC(=O)Oc1ccc(N(C)C)c(C)c1 :: inactive
CCC(=O)c1ccccc1 :: inactive
CCNc1nc(NC(C)C)nc(OC)n1 :: inactive
N#CC(CCc1ccc(Cl)cc1)(Cn1cncn1)c1ccccc1 (centres undefined) :: inactive
Clc1cccc(N2CCNCC2)c1 :: inactive
Cc1ncc(CNC(=O)N(CCCl)N=O)c(N)n1 :: inactive
C1CCC(C2CCCCC2)CC1 :: inactive

Query: Any idea what its outcome is? The molecule is `Nc1n[nH]c(N)n1`
Response: inactive

Query: Likewise for `CC(C)CP(=S)(S)CC(C)C` ?
Response: inactive

Query: Param item: `Cc1nnc2n1-c1sc(CCC(=O)N3CCOCC3)cc1C(c1ccccc1Cl)=NC2`
Response: inactive
